Origin of measurements: ChEMBL document CHEMBL5724801

Consider the following molecules; for each one, report its Population Hoechst High Intensity Objects (%).
- System: HEK-293T
- TEST_METHOD_NOTES: Multiplex assay against HEK293T
- Format: toxicity, cell-based
- APPLIED_CONDITIONS: human, 24 h, 10 µM, compound concentration 10 uM
Numbers only, in %.

INSERT INTO measurements (molecule, value) VALUES
  ('Cc1c(C(=O)NCCCN(C)C)sc2ncnc(Nc3ccc(F)cc3OC(C)CF)c12 (stereo not given)', 0),
  ('CC(C)(c1ccc(O)cc1)c1ccc(O)cc1', 0),
  ('CCOC(=O)c1c(/C(C#N)=C\N)c2ccc(Cl)c(Cl)c2n1C', 0);

Would you be so kind as to report Population Hoechst High Intensity Objects (%) for each listed record?
1. COc1cc2nc(N3CCN(C(=O)c4ccco4)CC3)nc(N)c2cc1OC.Cl [PRAZOSIN HYDROCHLORIDE]
2. CCn1c(-c2ccncc2)cc2c1CCNC2=O
3. Cc1cnc(-c2cc(N3CCN(C(=O)CCS(C)(=O)=O)CC3)ncc2Cl)c(C)c1
4. Cc1cccc(NC(=O)CN2CCC(c3ccccn3)CC2)c1.Cl.Cl
5. Cc1ccc(-c2c(C(=O)CF)n(CCCO)c3ncnc(N)c23)cc1

5
0
5
7
0

Would you be so kind as to report Population Hoechst High Intensity Objects (%) for each listed record?
1. CN1CC[C@@]23CCCC[C@@H]2[C@@H]1Cc1ccc(O)cc13.O=C(O)C(O)C(O)C(=O)O
2. COc1cc(N2CCN(C)CC2)ccc1Nc1nccc(-c2cn(C)c3cnccc23)n1

[0, 0]

----------
Consider the following compounds; for each one, report its Population Normal (%).
- System: Fibroblast
- TEST_METHOD_NOTES: Multiplex assay against human fibroblast
- Format: toxicity, cell-based
- APPLIED_CONDITIONS: 48 h, 10 µM, compound concentration 10 uM
Give bare numbers, in %.

INSERT INTO assay_data (compound, system_under_test, measured_endpoint, unit_text, value) VALUES
  ('Cc1c(-c2cc(-c3ccccc3Cl)no2)cnn1C1CCNCC1.Cl', 'Fibroblast', 'Population Normal (%)', '%', 100),
  ('Cc1cc(C(C#N)c2ccc(Cl)cc2)c(Cl)cc1NC(=O)c1cc(I)cc(I)c1O (centres undefined)', 'Fibroblast', 'Population Normal (%)', '%', 100),
  ('CCn1c(-c2nonc2N)nc2c(C#CC(C)(C)O)ncc(OCC3CCCNC3)c21 (centres undefined)', 'Fibroblast', 'Population Normal (%)', '%', 100),
  ('COc1ccc(CC(=O)NC(N/C(=N/C#N)Nc2cccc3ncccc23)C(C)(C)C)cc1OC (centres undefined)', 'Fibroblast', 'Population Normal (%)', '%', 100),
  ('CCC(=N\O)/C(C)=C/c1ccc(F)cc1', 'Fibroblast', 'Population Normal (%)', '%', 100),
  ('O=C(O)C(F)(F)F.O=C1NC(=O)/C(=C/c2c[nH]c(=O)c(-c3ccc(N4CCNCC4)nc3)c2)S1', 'Fibroblast', 'Population Normal (%)', '%', 100),
  ('O=C(NCC(=O)N1CC[C@H](N[C@H]2CC[C@@](O)(c3ccc(-c4ncccn4)cn3)CC2)C1)c1cccc(C(F)(F)F)c1', 'Fibroblast', 'Population Normal (%)', '%', 93),
  ('COC(=O)C1=C(C)NC(C)=C(C(=O)OC(C)C)C1c1cccc2nonc12 (centres undefined)', 'Fibroblast', 'Population Normal (%)', '%', 100);

Param item = Oc1c(CN2CCN(c3ccccn3)CC2)cc(Cl)c2cccnc12 ; retrieve measured Population Normal (%).
97
